Molecular target: V. russelli crude venom PLA2
Test: Phospholipase A2 activity assay (EnzChek), V. russelli crude venom
Conditions: 0.2 μg venom; 10 minute time point; Example 1
quantity kind: pIC50
Keep in mind that pIC50 stands for -log10 of concentration in molar terms.

1. Cc1ccc(C(=O)Nc2ccc(S(=O)(=O)O)c3cc(S(=O)(=O)O)cc(S(=O)(=O)O)c23)cc1NC(=O)c1cccc(NC(=O)Nc2cccc(C(=O)Nc3cc(C(=O)Nc4ccc(S(=O)(=O)O)c5cc(S(=O)(=O)O)cc(S(=O)(=O)O)c45)ccc3C)c2)c1 [Suramin]; 2.70

For this compound ( CC1=C(CC/C(C)=C/CCC2=CC[C@H](C3=CC(=O)O[C@H]3O)O[C@H]2O)C(C)(C)CCC1 [Manoalide] ), measured pIC50 is 4.50

These data points were gathered from patent US20200360405A1.
